The values you see were collected from patent US20240383900A1.

Target: Human CDK12 wt/CycK (Homo sapiens (Human))
Sequence (Q9NYV4 whole entry): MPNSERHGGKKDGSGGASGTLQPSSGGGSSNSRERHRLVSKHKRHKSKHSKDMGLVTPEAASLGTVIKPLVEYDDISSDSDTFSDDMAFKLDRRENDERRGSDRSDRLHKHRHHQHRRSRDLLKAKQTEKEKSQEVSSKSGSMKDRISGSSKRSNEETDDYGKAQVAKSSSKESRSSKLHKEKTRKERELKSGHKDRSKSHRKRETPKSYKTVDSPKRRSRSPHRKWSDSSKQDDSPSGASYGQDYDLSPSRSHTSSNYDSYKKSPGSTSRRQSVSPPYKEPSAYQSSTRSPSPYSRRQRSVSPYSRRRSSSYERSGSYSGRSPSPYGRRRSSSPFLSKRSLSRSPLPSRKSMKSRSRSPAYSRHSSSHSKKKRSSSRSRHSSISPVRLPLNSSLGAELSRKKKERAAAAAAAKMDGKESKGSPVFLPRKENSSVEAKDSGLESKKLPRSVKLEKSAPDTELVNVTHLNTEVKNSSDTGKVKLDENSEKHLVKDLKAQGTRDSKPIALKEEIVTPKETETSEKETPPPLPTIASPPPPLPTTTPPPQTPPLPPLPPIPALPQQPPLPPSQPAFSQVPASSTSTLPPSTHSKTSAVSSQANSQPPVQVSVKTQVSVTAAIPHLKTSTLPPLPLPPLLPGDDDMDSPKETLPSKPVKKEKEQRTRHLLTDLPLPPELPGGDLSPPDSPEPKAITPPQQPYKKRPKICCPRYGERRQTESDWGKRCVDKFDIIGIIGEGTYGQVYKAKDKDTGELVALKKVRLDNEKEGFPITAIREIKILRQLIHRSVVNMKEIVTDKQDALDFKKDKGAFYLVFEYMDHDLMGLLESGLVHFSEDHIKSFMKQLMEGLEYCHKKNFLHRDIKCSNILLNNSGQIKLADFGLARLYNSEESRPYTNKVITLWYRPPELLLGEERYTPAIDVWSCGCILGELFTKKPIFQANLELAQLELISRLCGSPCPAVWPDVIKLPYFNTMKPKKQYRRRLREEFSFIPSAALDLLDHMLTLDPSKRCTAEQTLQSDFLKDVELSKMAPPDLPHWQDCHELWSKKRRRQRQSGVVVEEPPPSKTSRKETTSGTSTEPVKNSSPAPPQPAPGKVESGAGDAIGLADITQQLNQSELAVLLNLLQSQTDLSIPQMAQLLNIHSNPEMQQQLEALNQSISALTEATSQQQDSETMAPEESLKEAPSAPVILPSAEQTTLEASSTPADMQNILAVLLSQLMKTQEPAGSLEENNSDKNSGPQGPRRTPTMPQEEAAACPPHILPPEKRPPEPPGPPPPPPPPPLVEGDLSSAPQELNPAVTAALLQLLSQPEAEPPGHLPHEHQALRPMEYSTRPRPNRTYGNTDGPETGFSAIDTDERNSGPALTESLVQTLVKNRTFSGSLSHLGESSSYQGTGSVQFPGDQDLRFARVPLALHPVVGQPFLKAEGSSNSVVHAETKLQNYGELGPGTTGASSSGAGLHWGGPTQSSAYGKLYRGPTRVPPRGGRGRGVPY
Sequence (O75909 whole entry partner): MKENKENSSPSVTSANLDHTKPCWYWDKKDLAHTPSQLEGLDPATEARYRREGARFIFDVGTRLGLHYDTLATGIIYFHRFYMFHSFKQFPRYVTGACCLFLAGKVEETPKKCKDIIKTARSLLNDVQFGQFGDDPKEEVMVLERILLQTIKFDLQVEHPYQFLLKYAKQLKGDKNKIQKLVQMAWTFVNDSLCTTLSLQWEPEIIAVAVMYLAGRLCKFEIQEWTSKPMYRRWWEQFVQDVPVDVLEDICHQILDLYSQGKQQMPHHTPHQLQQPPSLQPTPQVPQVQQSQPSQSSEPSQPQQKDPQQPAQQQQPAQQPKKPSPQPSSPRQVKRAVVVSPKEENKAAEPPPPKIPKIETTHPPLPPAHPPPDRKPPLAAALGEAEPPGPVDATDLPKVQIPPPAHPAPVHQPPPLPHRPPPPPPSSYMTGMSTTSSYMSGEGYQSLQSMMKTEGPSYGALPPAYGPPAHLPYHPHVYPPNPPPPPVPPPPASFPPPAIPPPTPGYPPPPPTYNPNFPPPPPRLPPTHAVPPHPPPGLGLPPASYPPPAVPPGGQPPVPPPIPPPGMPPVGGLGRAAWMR
Experiment: Radiometric protein kinase assay (33PanQinase Activity Assay), CDK12
Type: biochemical
Details: ATP 0.3 μM; read-out: CDK12 IC50
Procedure: A radiometric protein kinase assay (^33PanQinase® Activity Assay) was used for measuring the kinase activity of the two protein kinases (CDK12/CDK7). All kinase assays were performed in 96-well FlashPlates™ from PerkinElmer (Boston, MA, USA) in a 50 μL reaction volume. […] The reaction mixture was incubated at 30° C. for 60 min and then stopped by the addition of 2% (v/v) H3PO4. […] Incorporation of ^33Pi was determined with a microplate scintillation count (Microbeta, Wallac). […]
pIC50: −log10 of the molar value.
Please note: label 1 applies when pIC50 is 7 or greater, and label 0 applies otherwise.

{"columns": ["Compound", "Assigned Category"],
 "data": [
  ["CC(=O)N1CCC(CNc2cc(NCc3ccc(-c4ccccn4)cc3)n3ncc(C4CC4)c3n2)CC1", "label 0"],
  ["c1ccc(-c2ccc(CNc3cc(N4CC5(CCNCC5)C4)nc4c(C5CC5)cnn34)cc2)nc1", "label 0"],
  ["c1cnn(-c2ccc(CNc3cc(N[C@H]4CCNC4)nc4c(C5CC5)cnn34)cc2)c1", "label 0"],
  ["OC1CCN(c2cc(NCc3ccc(-c4ccccn4)cc3)n3ncc(C4CC4)c3n2)CC1", "label 0"],
  ["O[C@H]1CNCC[C@@H]1CNc1cc(NCc2ccc(-n3cccn3)cc2)n2ncc(C3CC3)c2n1", "label 1"],
  ["N#Cc1cnn2c(NCc3ccc(-c4ccccn4)cc3)cc(NC[C@H]3CCNC[C@@H]3O)nc12", "label 1"],
  ["N#Cc1cnn2c(NCc3ccc(-c4ccccn4)cc3)cc(N[C@H]3CCCNC3)nc12", "label 1"],
  ["N#Cc1cnn2c(NCc3ccc(-c4ccccc4)cc3)cc(NC[C@H]3CCNC[C@@H]3O)nc12", "label 1"],
  ["OC1CN(c2cc(NCc3ccc(-c4ccccn4)cc3)n3ncc(C4CC4)c3n2)C1", "label 0"],
  ["c1ccc(-c2ccc(CNc3cc(N4CCNC5(CC5)C4)nc4c(C5CC5)cnn34)cc2)nc1", "label 1"],
  ["N[C@H]1CC(=O)N(c2cc(NCc3ccc(-c4ccccn4)cc3)n3ncc(C4CC4)c3n2)C1", "label 0"],
  ["O[C@H]1CNCC[C@@H]1CNc1cc(NCc2ccc(-c3ncco3)cc2)n2ncc(C3CC3)c2n1", "label 1"],
  ["c1ccc(-c2ccc(CNc3cc(NC4CNC4)nc4c(C5CC5)cnn34)cc2)nc1", "label 1"]
]}
